Target protein (sequence): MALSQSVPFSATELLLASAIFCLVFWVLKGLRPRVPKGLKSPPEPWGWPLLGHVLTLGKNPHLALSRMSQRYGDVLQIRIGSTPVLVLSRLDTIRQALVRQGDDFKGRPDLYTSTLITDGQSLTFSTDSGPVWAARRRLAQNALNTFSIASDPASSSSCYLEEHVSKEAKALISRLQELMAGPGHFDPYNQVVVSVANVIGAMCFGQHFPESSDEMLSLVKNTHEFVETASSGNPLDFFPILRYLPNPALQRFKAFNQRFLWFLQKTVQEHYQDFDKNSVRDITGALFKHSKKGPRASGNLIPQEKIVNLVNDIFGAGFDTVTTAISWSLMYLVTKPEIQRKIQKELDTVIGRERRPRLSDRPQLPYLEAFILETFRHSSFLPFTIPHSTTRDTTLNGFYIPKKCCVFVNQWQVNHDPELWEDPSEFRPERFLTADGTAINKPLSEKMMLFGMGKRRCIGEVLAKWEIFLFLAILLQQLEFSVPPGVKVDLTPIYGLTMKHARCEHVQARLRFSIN
measurement-type: AC50

Value of measured AC50 for the entry C[C@@H](C(=O)NCCF)[C@H]1C[C@]1(C)[C@H](NC(=O)OCc1ccccc1)c1ccccc1 : 15.8 µM (inconclusive)

Value of measured AC50 for the entry CCOC(=O)c1c(C)c(C(=O)N2CCCCCC2)c(C)n1C : 25.1 µM (inconclusive)

Value of measured AC50 for the entry O=c1c(-c2cc(F)cc(F)c2)nc2cnc(N3CCOCC3)nc2n1C1CC1 : 1 µM (inconclusive)

Value of measured AC50 for the entry CN(C)C(=O)c1ccc(-c2cc(N(C)Cc3ccco3)ncn2)cc1 : 25.1 µM (inconclusive)

Value of measured AC50 for the entry CCOC(=O)c1[nH]c(C(=O)O)c(CCC(=O)OC)c1C : 0.251 µM (inconclusive)

* * *

Answer each item with its documented AC50.
Assay: Luminescence Cell-Based Dose Retest to Confirm Inhibitors of Cancer Stem Cells. [Related pubchem assays (depositor defined):AID2717, AID2721]
Format: functional
Settings: Homo sapiens
Where a name gives a salt, the structure may show the parent alone. The source made the active and inactive calls.

Value of measured AC50 for the entry O=C(c1ccc(OCCN2CCCCC2)cc1)c1c(-c2ccc(O)cc2)sc2cc(O)ccc12 [RALOXIFENE HYDROCHLORIDE] : 1.75 µM (active)

Value of measured AC50 for the entry CCCOc1ccc(/C=N/Nc2cc(N3CCOCC3)ncn2)c(O)c1 : 2.87 µM (active)

Value of measured AC50 for the entry COc1ccc(NC(=O)c2[nH]cnc2C(=O)N[C@@H](CC(C)C)C(=O)OC(C)(C)C)cc1 : 7.16 µM (active)

Value of measured AC50 for the entry COc1ccccc1/C=C/C=N/n1c(S)nnc1-c1[nH]nc2c1CCC2 : 13.7 µM (active)

Value of measured AC50 for the entry Oc1ccc(Nc2nc(-c3ccccc3O)nc3ccccc23)cc1 : 2.71 µM (active)

Value of measured AC50 for the entry Cc1ccc(OCCN2CCN(c3nc(NCc4ccco4)c4ccccc4n3)CC2)cc1 : 4.7 µM (active)

* * *

Target: Corticotropin-releasing factor receptor 2/Corticotropin-releasing factor-binding protein (Homo sapiens, UniProt P24387+Q13324)
Sequence (Q13324 whole entry): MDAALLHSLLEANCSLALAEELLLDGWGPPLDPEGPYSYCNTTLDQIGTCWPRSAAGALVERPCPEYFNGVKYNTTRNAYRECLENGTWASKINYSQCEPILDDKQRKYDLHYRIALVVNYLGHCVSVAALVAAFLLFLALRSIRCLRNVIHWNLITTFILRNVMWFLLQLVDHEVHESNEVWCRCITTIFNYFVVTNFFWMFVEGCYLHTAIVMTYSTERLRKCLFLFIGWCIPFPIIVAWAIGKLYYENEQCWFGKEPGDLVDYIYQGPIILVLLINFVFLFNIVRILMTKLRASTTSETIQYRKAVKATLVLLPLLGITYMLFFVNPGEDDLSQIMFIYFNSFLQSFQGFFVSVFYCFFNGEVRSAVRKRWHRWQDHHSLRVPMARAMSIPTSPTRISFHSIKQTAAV
Sequence (P24387 whole entry): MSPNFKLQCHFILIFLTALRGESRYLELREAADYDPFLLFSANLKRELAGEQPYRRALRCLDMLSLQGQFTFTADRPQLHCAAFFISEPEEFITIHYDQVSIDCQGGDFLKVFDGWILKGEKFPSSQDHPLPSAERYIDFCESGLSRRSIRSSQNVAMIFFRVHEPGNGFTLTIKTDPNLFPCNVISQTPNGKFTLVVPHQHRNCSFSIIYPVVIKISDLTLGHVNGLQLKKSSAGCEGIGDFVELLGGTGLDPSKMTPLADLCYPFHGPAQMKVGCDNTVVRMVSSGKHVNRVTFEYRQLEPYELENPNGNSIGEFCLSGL
Experiment: activators of CRF receptor 2 with binding protein – uHTS hits, confirmation (AID 602473)
Format: functional
Conditions: read-out: EC50_Mean
Calls of active or inactive are those of the source.
measurement-type: EC50

Value of measured EC50 for the entry O=C(O)c1cnc(-c2ccccc2)nc1Sc1ccc(Cl)cc1 : > 53 µM (inactive)

Value of measured EC50 for the entry COc1cccc(Oc2ccc(OC)cc2C(=O)O)c1 : > 53 µM (inactive)

Value of measured EC50 for the entry Cc1cc(C)n2nc(CC(=O)NNC(=O)c3ccccc3Cl)nc2n1 : > 53 µM (inactive)

Value of measured EC50 for the entry CCOc1ccc(NS(=O)(=O)c2ccc(C(=O)NCC3(N(C)C)CCCCC3)cc2)cc1 : 8.72 µM (active)

Value of measured EC50 for the entry O=C(Nc1nc2c(F)cc(F)cc2s1)c1ccc([N+](=O)[O-])o1 : > 53 µM (inactive)

Value of measured EC50 for the entry OCCOCCN1CCN(C(S)=Nc2ccccc2)CC1 : > 53 µM (inactive)

Value of measured EC50 for the entry Nc1nc(O)cc(Nc2ccccc2Cl)n1 : > 53 µM (inactive)

Value of measured EC50 for the entry SC1=NCN(CCc2ccccc2)CN1Cc1ccccc1 : > 53 µM (inactive)

Value of measured EC50 for the entry CCCCCn1nc(-c2ccccc2)c2nc3ccccc3nc21 : 4.97 µM (active)

Value of measured EC50 for the entry CN(C(=O)CN1C(=O)/C(=C/c2ccccc2Cl)SC1=S)C1CCS(=O)(=O)C1 (centres undefined) : > 53 µM (inactive)

Value of measured EC50 for the entry COc1ccccc1-n1c(SCC(N)=O)nnc1-c1ccc(S(=O)(=O)N2CCCCC2)cc1 : 12.7 µM (active)

Value of measured EC50 for the entry CC(=O)C(C(C)=O)c1cc(NS(=O)(=O)c2ccccc2)ccc1NS(=O)(=O)c1ccccc1 : 9.35 µM (active)

Value of measured EC50 for the entry CCOC(=O)c1cc(NC(=O)Nc2cc(C)ccn2)c(C)nc1C : > 53 µM (inactive)

Value of measured EC50 for the entry CC(=O)C1=C(O)C(=O)N(Cc2ccccc2)C1c1ccc(F)cc1 (centres undefined) : > 53 µM (inactive)

Value of measured EC50 for the entry CC(Oc1ccc(C(=O)c2ccccc2)cc1)C(=O)Nc1ccc(S(N)(=O)=O)cc1 (centres undefined) : 8.21 µM (active)

Value of measured EC50 for the entry O=C(Nc1ccc(O)cc1)c1cccc(Oc2ccc([N+](=O)[O-])cc2)c1 : > 53 µM (inactive)

Value of measured EC50 for the entry COc1ccc(C(=O)NC(Oc2ccccc2)C(Cl)(Cl)Cl)cc1 (centres undefined) : > 53 µM (inactive)

Value of measured EC50 for the entry O=C(NCCc1csc(-c2ccccc2)n1)c1c(F)cccc1Cl : > 53 µM (inactive)

Value of measured EC50 for the entry CCOC(=O)c1cc([N+](=O)[O-])sc1NC(=O)c1ccc(S(=O)(=O)N2CC3(C)CC2CC(C)(C)C3)cc1 (centres undefined) : 0.793 µM (active)
